# SYSTEM_NAME: UniProt A0A7U7EVR3
# Sequence (A0A7U7EVR3 entry or part of it): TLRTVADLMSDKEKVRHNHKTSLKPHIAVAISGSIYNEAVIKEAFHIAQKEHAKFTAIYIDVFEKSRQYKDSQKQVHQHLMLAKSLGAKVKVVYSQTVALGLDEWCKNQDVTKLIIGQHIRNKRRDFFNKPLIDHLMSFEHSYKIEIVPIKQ
# METHOD_NOTES: biochemical
# Type: binding
# STATED_CONDITIONS: Dissociation Constant (KD) ± Standard Deviation, His6-USPSa WT; MST, changes in initial fluorescence
pKd reference
pKd (log units): -log10 of the concentration in mol/L.

The cases that follow already have their pKd on record.
{"columns": ["COMPOUND", "pKd"],
 "data": [
  ["Nc1ncnc2c1ncn2[C@@H]1O[C@H](COP(=O)(O)O)[C@@H](O)[C@H]1O", 2.58],
  ["Nc1ncnc2c1ncn2[C@@H]1O[C@H](COP(=O)(O)OP(=O)(O)OP(=O)(O)O)[C@@H](O)[C@H]1O [ATP, adenosine triphosphate]", 2.29]
]}

The observed pKd for `Nc1ncnc2c1ncn2[C@@H]1O[C@@H]2COP(=O)(O)O[C@H]2[C@H]1O` when tested with UniProt A0A7U7EVR3 stands at 2.00
